Taken from paper PMC10668032.

- EXPERIMENTAL_TARGET: SIX1 homeodomain (reference allele) (human, UniProt Q15475 108-198)
- Sequence: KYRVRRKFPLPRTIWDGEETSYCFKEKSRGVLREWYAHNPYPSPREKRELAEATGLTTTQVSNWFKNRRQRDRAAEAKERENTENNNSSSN
- PROCEDURE_TEXT: universal protein binding microarray; Universal all-10-mer PBM (8x60K, AMADID 030236), 300 nM GST-tagged protein, Alexa Fluor 488 anti-GST; buffer, salt, pH and temperature not stated (as in Berger); high values mean tight binding
- CONDITION_SUMMARY: protein: ivt; tags: N-terminal GST; dsDNA, one strand shown
The full ranking holds about 33,000 sequences; the median of “e-score” is about -0.053, and the highest 2% start at about 0.38. This excerpt belongs to a sample that is enriched for the highest values.
Class field: derived from binding signal; ranges bottom = under 0.2 E-score, middle = from 0.2 E-score up to 0.3 E-score, top = 0.3 E-score and over

CATAAACC bottom

For the record `GGTGTAGA` , report the class its binding signal corresponds to. top

For the record `CAGGTATC` , report the class its binding signal corresponds to. top

----------
# binding signal annotations
- EXPERIMENTAL_TARGET: SIX1 homeodomain (reference allele) (human, UniProt Q15475 108-198)
- Sequence: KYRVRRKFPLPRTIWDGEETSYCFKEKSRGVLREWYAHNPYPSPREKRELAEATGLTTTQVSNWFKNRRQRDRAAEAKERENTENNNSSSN
- PROCEDURE_TEXT: universal protein binding microarray; Universal all-10-mer PBM (8x60K, AMADID 030236), 300 nM GST-tagged protein, Alexa Fluor 488 anti-GST; buffer, salt, pH and temperature not stated (as in Berger); high values mean tight binding
- CONDITION_SUMMARY: protein: ivt; tags: N-terminal GST; dsDNA, one strand shown
Over roughly 33,000 sequences, “e-score” has its median near -0.053; the highest 2% begin near 0.38. Only a selection was taken, and the highest values are over-represented in it overall.
Could you give me the number in E-score? Just the number is fine.

binding signal for SIX1 homeodomain (reference allele) (human, UniProt Q15475 108-198) with input `GGGGTAGA` equals 0.158

----------
- EXPERIMENTAL_TARGET: SIX1 homeodomain (reference allele) (human, UniProt Q15475 108-198)
- Sequence: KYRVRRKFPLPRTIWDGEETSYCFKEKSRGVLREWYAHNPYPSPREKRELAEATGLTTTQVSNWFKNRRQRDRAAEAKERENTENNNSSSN
- PROCEDURE_TEXT: universal protein binding microarray; Universal all-10-mer PBM (8x60K, AMADID 030236), 300 nM GST-tagged protein, Alexa Fluor 488 anti-GST; buffer, salt, pH and temperature not stated (as in Berger); high values mean tight binding
- CONDITION_SUMMARY: protein: ivt; tags: N-terminal GST; dsDNA, one strand shown
Over roughly 33,000 sequences, “e-score” has its median near -0.053; the highest 2% begin near 0.38. This excerpt belongs to a sample that is enriched for the highest values.
EXPERIMENTAL_ENDPOINT: binding signal (E-score)
Could you give me the number in E-score? Just the number is fine.

Look over these answered cases.
ATTAATCG 0.16
AATGTATA 0.259
ATCGTCAT 0.22

Entry `CCGGGATA` — recorded binding signal = 0.305

Entry `CAAACCCG` — recorded binding signal = 0.174

Entry `CGATCACG` — recorded binding signal = 0.251

Entry `CAGTATAC` — recorded binding signal = 0.295

Entry `GTGGGATA` — recorded binding signal = 0.348

Entry `AAGTATTA` — recorded binding signal = 0.254

Entry `ATCAGCCA` — recorded binding signal = 0.237

Entry `AACGGGAT` — recorded binding signal = 0.243

Entry `ATACGAAG` — recorded binding signal = 0.199

Entry `GAAGATAA` — recorded binding signal = 0.154

Entry `ACAGGATC` — recorded binding signal = 0.283

Entry `AGAATCCC` — recorded binding signal = 0.175

Entry `AGATCAAC` — recorded binding signal = 0.264

Entry `CAGTATCG` — recorded binding signal = 0.435

Entry `GTCTACAC` — recorded binding signal = 0.152

Entry `AGATCAGA` — recorded binding signal = 0.215

----------
- EXPERIMENTAL_TARGET: SIX1 homeodomain (reference allele) (human, UniProt Q15475 108-198)
- Sequence: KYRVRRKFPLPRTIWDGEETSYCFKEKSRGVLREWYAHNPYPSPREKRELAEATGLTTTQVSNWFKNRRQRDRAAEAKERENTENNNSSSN
- PROCEDURE_TEXT: universal protein binding microarray; Universal all-10-mer PBM (8x60K, AMADID 030236), 300 nM GST-tagged protein, Alexa Fluor 488 anti-GST; buffer, salt, pH and temperature not stated (as in Berger); high values mean tight binding
- CONDITION_SUMMARY: protein: ivt; tags: N-terminal GST; dsDNA, one strand shown
Whole data set: some 33,000 sequences, median “e-score” near -0.053, cut for the highest 2% near 0.38. For the sample, the highest values were picked, then their nearest neighbours and some sequences at random.
# binding signal annotations
Could you give me the number in E-score? Just the number is fine.

Look over these answered cases.
CTATCAGA 0.271
ATCTCAGA 0.31
ATATGATG 0.202
AGATCCTC 0.329

Entry `AGTATCGG` — recorded binding signal = 0.429

Entry `AGTATATG` — recorded binding signal = 0.207

Entry `ATATACCA` — recorded binding signal = 0.326

Entry `CTGATCTA` — recorded binding signal = 0.257

Entry `CGTATAGC` — recorded binding signal = 0.185

Entry `AGATCAGC` — recorded binding signal = 0.273

Entry `ATATCAGA` — recorded binding signal = 0.408

Entry `AGATCCTG` — recorded binding signal = 0.252

Entry `ATCTCCTG` — recorded binding signal = 0.298

Entry `ATATCCTG` — recorded binding signal = 0.394

Entry `GTATTCTA` — recorded binding signal = 0.191

Entry `ATCATCCG` — recorded binding signal = 0.348

Entry `ATATACCG` — recorded binding signal = 0.393

Entry `ATACAACG` — recorded binding signal = 0.152

Entry `ATATACCC` — recorded binding signal = 0.446

Entry `AGTATCGA` — recorded binding signal = 0.418

Entry `CAGCTATC` — recorded binding signal = 0.25

Entry `ATATCCTC` — recorded binding signal = 0.426

Entry `GGATAAAA` — recorded binding signal = 0.166

----------
- EXPERIMENTAL_TARGET: SIX1 homeodomain (reference allele) (human, UniProt Q15475 108-198)
- Sequence: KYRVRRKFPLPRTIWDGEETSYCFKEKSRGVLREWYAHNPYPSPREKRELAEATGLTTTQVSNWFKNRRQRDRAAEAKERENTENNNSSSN
- PROCEDURE_TEXT: universal protein binding microarray; Universal all-10-mer PBM (8x60K, AMADID 030236), 300 nM GST-tagged protein, Alexa Fluor 488 anti-GST; buffer, salt, pH and temperature not stated (as in Berger); high values mean tight binding
- CONDITION_SUMMARY: protein: ivt; tags: N-terminal GST; dsDNA, one strand shown
Over roughly 33,000 sequences, “e-score” has its median near -0.053; the highest 2% begin near 0.38. Many of the other results were omitted from the sample, so the highest values are more common in it than they were.
EXPERIMENTAL_ENDPOINT: binding signal (E-score)
Could you give me the number in E-score? Just the number is fine.

Look over these answered cases.
ATCGTATC 0.441
GGATTAAA 0.231
CGTATCCC 0.389
ATGTCTCA 0.2
CTTGACAC 0.244
AAACCCGA 0.165
AATGATCG 0.152
CGTATCCA 0.403

Next sequence, binding signal to be filled in.
Entry `CTATATTA` — recorded binding signal = 0.152

----------
- EXPERIMENTAL_TARGET: SIX1 homeodomain (reference allele) (human, UniProt Q15475 108-198)
- Sequence: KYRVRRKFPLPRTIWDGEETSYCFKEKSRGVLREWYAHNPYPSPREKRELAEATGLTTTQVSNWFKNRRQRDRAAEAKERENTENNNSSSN
- PROCEDURE_TEXT: universal protein binding microarray; Universal all-10-mer PBM (8x60K, AMADID 030236), 300 nM GST-tagged protein, Alexa Fluor 488 anti-GST; buffer, salt, pH and temperature not stated (as in Berger); high values mean tight binding
- CONDITION_SUMMARY: protein: ivt; tags: N-terminal GST; dsDNA, one strand shown
Over roughly 33,000 sequences, “e-score” has its median near -0.053; the highest 2% begin near 0.38. Only a selection was taken, and the highest values are over-represented in it overall.
EXPERIMENTAL_ENDPOINT: binding signal (E-score)
Could you give me the number in E-score? Just the number is fine.

Look over these answered cases.
ACGATCAC 0.177
ATATGTCG 0.272
AGGATCAG 0.368
TACGCATA 0.197

Entry `ATACCTCC` — recorded binding signal = 0.403

Entry `ATCCGGTC` — recorded binding signal = 0.318
